# target_or_system: α-1B adrenoreceptor (Rattus norvegicus, UniProt P15823)
# Construct: from tissue; host or cells: rat spleen
# Sequence (P15823 1-515): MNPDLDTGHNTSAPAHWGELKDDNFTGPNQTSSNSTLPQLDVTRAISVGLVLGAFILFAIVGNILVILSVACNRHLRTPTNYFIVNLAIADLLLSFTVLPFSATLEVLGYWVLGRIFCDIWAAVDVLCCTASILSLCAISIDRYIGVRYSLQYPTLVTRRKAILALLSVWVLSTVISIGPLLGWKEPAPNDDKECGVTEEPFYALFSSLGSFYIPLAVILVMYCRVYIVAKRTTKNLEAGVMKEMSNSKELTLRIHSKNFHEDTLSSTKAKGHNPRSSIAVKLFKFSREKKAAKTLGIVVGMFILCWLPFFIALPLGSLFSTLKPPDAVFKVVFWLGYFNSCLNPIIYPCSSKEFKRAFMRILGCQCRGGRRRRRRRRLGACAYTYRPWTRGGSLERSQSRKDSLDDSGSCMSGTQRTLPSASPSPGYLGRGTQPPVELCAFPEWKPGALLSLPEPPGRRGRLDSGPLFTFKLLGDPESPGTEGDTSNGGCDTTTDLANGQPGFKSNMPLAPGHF
# experiment_summary: cell-based
# run_conditions: phenylephrine-induced contraction; Schild plot; read-out: In Vitro Characterization (pA2) Rat Spleen (converted)
Structures can show the parent of a compound that is named as a salt.
The label rule met is reserved for Kb strictly under 7 nM; rule not met covers values equal to or above it.

Worked set:
COc1cccc2c1[C@@H]1CN(CCCCn3c(=O)[nH]c4c(sc5ncccc54)c3=O)C[C@H]1CO2 [Example 44, hydrochloride] | rule met
COc1cccc2c1[C@@H]1CN(CCCCn3c(=O)[nH]c4c(sc5ncc(-c6ccccc6)nc54)c3=O)C[C@H]1CO2 [Example 50, hydrochloride] | rule not met
COc1cccc2c1[C@H]1CN(CCCCn3c(=O)[nH]c4c(sc5nccnc54)c3=O)C[C@@H]1CO2.Cl.Cl (racemic) [Example 74, dihydrochloride] | rule met
COc1cccc2c1[C@@H]1CN(CCCCn3c(=O)[nH]c4c(sc5ccnc(OC)c54)c3=O)C[C@H]1CO2 [Example 49] | rule not met
COc1cccc2c1[C@@H]1CN(CCCCn3c(=O)[nH]c4c(sc5ncc(Cl)nc54)c3=O)C[C@H]1CO2 [Example 13, hydrochloride] | rule met

In the following, a different compound is considered.
Input COc1cccc2c1[C@@H]1CN(CCCCn3c(=O)[nH]c4c(sc5c(Cl)nccc54)c3=O)C[C@H]1CO2 [Example 54] ; condition: Kb strictly below 7 nM. Does it hold?
rule not met

Source listed as patent EP0942911B1.
